target: T1, Bio-P19 member A2E-23 (chain 2 carries a C-terminal BirA substrate peptide (BSP), enzymatically biotinylated; the BSP letters are not given in the patent and are left out); test: phage ELISA, streptavidin plate, anti-M13-HRP
T1 construct: also called biotinylated control peptide A2E-23/HLA-A*02:01 monomer
T1 sequence (beta, as listed by the source): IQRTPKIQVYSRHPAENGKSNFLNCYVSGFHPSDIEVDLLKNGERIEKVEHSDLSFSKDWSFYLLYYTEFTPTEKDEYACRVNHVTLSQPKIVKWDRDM

{"binder": "PSA146/HLA-A*02:01-specific scFv phage clone #5 (scFv, V domains shown) VH: QVQLVQSGAEVKKPGDSVKVSCKPSGYNFLNYGINWVRQAPGQGLEWMGWISTYTGNTNYAQKLQGRVTFTTDTSTSTAYMEMRSLRSDDTAVYYCARSSEYYTWDHWGQGTLVTVSS VL: QSVLTQPPSVSGAPGQRVTISCTGSSSNIGAGYDVHWYQQLPGTAPKLLIYGNSNRPSGVPDRFSGSKSGTSASLAITGLQAEDEADYYCQSYDSSLSGWVFGGGTKLTVLG", "binding result": "no binding"}
{"binder": "PSA146/HLA-A*02:01-specific scFv phage clone #13 (scFv, V domains shown) VH: QVQLVQSGAEVKKPGASVKVSCKASGYTFTSYYMHWVRQAPGQGLEWMGGFDPEDGETIYAQKFQGRVTMTEDTSTDTAYMGLSSLRSEDTAVYYCARYSYDYWGQGTLVTVSS VL: QAVVTQEPSLTVSPGGTVTLTCASSTGAVTSGYYPNWFQQKPGQAPRALIYSTSNKHSWTPARFSGSLLGGKAALTLSGVQPEDEAEYYCLLYYGGAYVFGTGTKVTVLG", "binding result": "no binding"}
{"binder": "PSA146/HLA-A*02:01-specific scFv phage clone #14 (scFv, V domains shown) VH: EVQLVQSGAEVKKPGASVKVSCKASGYTFTGYFMHWVRQAPGQGLEWMGGFDPEDGETIYAQKFQGRVTMTEDTSTDTAYMELSSLRSEDTAVYYCARYSYDLWGQGTLVTVSS VL: QTVVTQEPSLTVSPGGTVTLTCASSTGAVTSGYYPNWFQQKPGQAPRALIYSTSNKHSWTPARFSGSLLGGKAALTLSGVQPEDEAEYYCLLYYGGAQWVFGGGTKLTVLG", "binding result": "no binding"}
